Test system: SK-MEL-28 melanoma
Experiment: NCI-60 one-dose screen, 48 h
Details: 10 µM unless noted
Compounds without any hit were thinned out: in the full panel of roughly 83,000, 20% have a hit. Active and inactive are the calls of the source. Rule for the calls: active = growth percent below 10; inactive = the rest.
Select the matching outcome among active, inactive

Before answering, review these 3 worked examples.
CCOC(=O)c1ccc(NC(=O)CSC(N)=O)cc1 ... inactive
C=C(c1ccc(C(=O)NCCCn2ccnc2)cc1)c1cc2c(cc1C)C(C)(C)CCC2(C)C ... active
CN1CCCN(CCNc2nccc(-c3c(-c4cccc(O)c4)nc4sccn34)n2)S1(=O)=O ... inactive

QUERY: For this compound, state the assay outcome: O=C(CC(=O)c1ccccc1F)Nc1ccc([N+](=O)[O-])cc1
RESULT: inactive

QUERY: What was the test verdict on C[C@@H]1CC2C3CCC4=CC(=O)C=C[C@]4(C)[C@@]3(Cl)[C@@H](O)C[C@]2(C)[C@@]1(OC(=O)c1ccco1)C(=O)CCl (some centres not stated) ?
RESULT: inactive

QUERY: Assay outcome for CN1C(=O)C(C(=O)/C=C/c2ccccc2C(=O)O)C(=O)N(C)C1=O : what was it?
RESULT: inactive

QUERY: Assay outcome for COc1ccc(-c2cc(-c3cc4ccccc4oc3=O)n(-c3ccccc3)n2)cc1 : what was it?
RESULT: inactive

QUERY: Test call for this compound, please: Clc1nnc2c3ccccc3ccn12
RESULT: inactive
